assay: Solubility of curcumin in various vehicles; type: physicochemical; details: ethanol (cosurfactant), organic solvent or mixture, thermodynamic from solid
measured-metric: solubility at 48 h
Please state the value followed by its unit.

**Q:** GET /values?readout=solubility at 48 h&item= COc1cc(/C=C/C(=O)CC(=O)/C=C/c2ccc(O)c(OC)c2)ccc1O
**A:** 5980 µg/mL

---

experiment: Solubility of curcumin in various vehicles; format: physicochemical; conditions: PEG 400 (cosurfactant), organic solvent or mixture, thermodynamic from solid
measured-metric: solubility at 48 h (mg/mL)
Reply numerically in mg/mL, unit not repeated.

**Q:** Reported solubility at 48 h, molecule COc1cc(/C=C/C(=O)CC(=O)/C=C/c2ccc(O)c(OC)c2)ccc1O [curcumin] : ____
**A:** 160

---

assay: Solubility of curcumin in various vehicles; format: physicochemical; settings: Labrasol (surfactant), organic solvent or mixture, thermodynamic from solid
measured-metric: solubility at 48 h (mg/mL)
Your answer should be a plain number; it is taken to be in mg/mL.

**Q:** // solubility at 48 h lookup, key: COc1cc(/C=C/C(=O)CC(=O)/C=C/c2ccc(O)c(OC)c2)ccc1O
**A:** 99.3

---

assay: Solubility of curcumin in various vehicles; format: physicochemical; settings: Cremophor EL (surfactant), organic solvent or mixture, thermodynamic from solid
measured-metric: solubility at 48 h (mg/mL)
Return type: number; implicit unit mg/mL.

**Q:** Which solubility at 48 h value belongs to COc1cc(/C=C/C(=O)CC(=O)/C=C/c2ccc(O)c(OC)c2)ccc1O ?
**A:** 65.8

---

assay: Solubility of curcumin in various vehicles; format: physicochemical; conditions: isopropyl myristate (oil), oil or lipid, thermodynamic from solid
measured-metric: solubility at 48 h (µg/mL)
The reply should contain only the number, in µg/mL.

**Q:** I would be grateful if you could share the reported solubility at 48 h for COc1cc(/C=C/C(=O)CC(=O)/C=C/c2ccc(O)c(OC)c2)ccc1O [curcumin] .
**A:** 510
